- System: Mus musculus
- PROTOCOL DESCRIPTION: Analgesic activity in Swiss albino mouse assessed as inhibition of acetic acid-induced writhing at 0.029 mmol/kg. po dosed 1 hr before acetic acid challenge and measured during 30 mins post acetic acid challenge
- Assay type: functional
MEASURED METRIC: inhibition in vivo at 29 µmol/kg (%)
Return type: number; implicit unit %.

Here are 4 compounds together with their reported answers.
CCOC(=O)Cc1nc2c(c(=O)[nH]1)C1CCCN1C(=O)N2c1ccccc1 (stereo not given): 70.8
CCOC(=O)C/C(C)=N/NC(=O)c1nc2c(c(=O)[nH]1)C1CCCN1C(=O)N2c1ccccc1 (stereo not given): 1.17
CC(C)=NNC(=O)c1nc2c(c(=O)[nH]1)C1CCCN1C(=O)N2c1ccccc1 (stereo not given): 58.8
CCO/C=N/NC(=O)c1nc2c(c(=O)[nH]1)C1CCCN1C(=O)N2c1ccccc1 (stereo not given): 24.9

// next item, inhibition in vivo at 29 µmol/kg requested
Task: Tell me measured inhibition in vivo at 29 µmol/kg for Cc1c(NC(=O)c2nc3c(c(=O)[nH]2)C2CCCN2C(=O)N3c2ccccc2)c(=O)n(-c2ccccc2)n1C (stereo not given) please.
Output: 63.3

Values compiled from ChEMBL document CHEMBL2062401.
